biological target: SARS-CoV-2 RBD (SARS-CoV-2, Wuhan-Hu-1, UniProt P0DTC2, biotinylated with an EZ-Link NHS-PEG4 biotinylation kit); assay: BLI
experimental-endpoint: fold improvement in binding affinity over VHH-72

Hello, I would appreciate it if you could give fold improvement in binding affinity over VHH-72 for each entry below.
1. Seq8 (VHH) VHH: QVQLQESGGGLVQAGGSLRLSCAASGYGFSEYAMGWFRQAPGKEREFVATISWSGRSTYYTDSVKGRFTISRDNAKNTVYLQMNSLKPDDTAVYYCARAGWGVVVSEWDYDYDYWGQGTQVTVSS
2. Seq5 (VHH) VHH: QVQLQESGGGLVQAGGSLRLSCAASGRMFSEYAMGWFRQAPGKEREFVATISWSGKGTYYTDSVKGRFTISRDNAKNTVYLQMNSLKPDDTAVYYCARAGFGVYVSEWDYDYDYWGQGTQVTVSS

Reply text:
> 2 fold
> 2 fold

Where do the numbers come from? From paper doi:10.1101/2023.12.01.569227.
